Experiment: Protection index, ratio of TD50 for neurotoxicity in ip dosed Kunming mouse to ED50 for anticonvulsant activity in ip dosed ScPTZ-induced Kunming mouse
Format: toxicity, organism-based
Conditions: in vivo, read-out: TI
Assign selectivity ratio to each entry below.
Note: the reply should be a number with no unit written.

State, in one line, measured selectivity ratio of CCCCCSc1nnc(COc2ccc(-n3cnnc3)cc2)o1
15.1

State, in one line, measured selectivity ratio of CCCCCSc1nnc(COc2ccc3c(c2)CCC(=O)N3)o1
56.4

State, in one line, measured selectivity ratio of CCCCCCSc1nnc(COc2ccc(NC(C)=O)cc2)o1
15.6

State, in one line, measured selectivity ratio of CCCCCCSc1nnc(COc2ccc3c(c2)CCC(=O)N3)o1
26

State, in one line, measured selectivity ratio of CCCCCSc1nnc(COc2ccc(NC(C)=O)cc2)o1
13.8

State, in one line, measured selectivity ratio of CCCCCCSc1nnc(COc2ccc(-n3cnnc3)cc2)o1
13.5

State, in one line, measured selectivity ratio of O=C1CCc2cc(OCc3nnc(SCc4ccc(C(F)(F)F)cc4)o3)ccc2N1
13.6

State, in one line, measured selectivity ratio of CCC1(C)CC(=O)NC1=O (stereo not drawn) [ETHOSUXIMIDE]
3.2

----------
System: Mus musculus
Assay: Anticonvulsant activity in Kunming mouse assessed as reduction in ScPTZ-induced seizure at 300 mg/kg, ip measured after 30 mins
Format: functional, organism-based
The source made the active and inactive calls. The calls are words filed in the database; no cut-off is given here.
Reported Endpoint: Activity

Solved cases below.
[
  {
    "Structure": "O=C1CCc2cc(OCc3nnc(SCc4ccccc4C(F)(F)F)o3)ccc2N1",
    "Reported Endpoint": "Activity",
    "Value Reported": "Active"
  },
  {
    "Structure": "CCCCCCCSc1nnc(COc2ccc(-n3cnnc3)cc2)o1",
    "Reported Endpoint": "Activity",
    "Value Reported": "Active"
  },
  {
    "Structure": "CC(=O)Nc1ccc(OCc2nnc(SCc3ccc(F)cc3)o2)cc1",
    "Reported Endpoint": "Activity",
    "Value Reported": "Active"
  },
  {
    "Structure": "CC(=O)Nc1ccc(OCc2nnc(SCc3ccccc3Cl)o2)cc1",
    "Reported Endpoint": "Activity",
    "Value Reported": "Active"
  },
  {
    "Structure": "CC(=O)Nc1ccc(OCc2nnc(SCc3ccccc3C)o2)cc1",
    "Reported Endpoint": "Activity",
    "Value Reported": "Active"
  },
  {
    "Structure": "O=C1CCc2cc(OCc3nnc(SCc4ccc(F)cc4)o3)ccc2N1",
    "Reported Endpoint": "Activity",
    "Value Reported": "Active"
  },
  {
    "Structure": "O=C1CCc2cc(OCc3nnc(SCc4cccc(Cl)c4)o3)ccc2N1",
    "Reported Endpoint": "Activity",
    "Value Reported": "Active"
  },
  {
    "Structure": "CCCCSc1nnc(COc2ccc3c(c2)CCC(=O)N3)o1",
    "Reported Endpoint": "Activity",
    "Value Reported": "Active"
  },
  {
    "Structure": "CC(=O)Nc1ccc(OCc2nnc(SCc3ccccc3F)o2)cc1",
    "Reported Endpoint": "Activity",
    "Value Reported": "Active"
  },
  {
    "Structure": "CC(=O)Nc1ccc(OCc2nnc(SCc3cccc(C(F)(F)F)c3)o2)cc1",
    "Reported Endpoint": "Activity",
    "Value Reported": "Active"
  }
]

State, in one line, measured Activity of CC(=O)Nc1ccc(OCc2nnc(SCc3ccc(C)cc3)o2)cc1
Active

Just for reference, ChEMBL document CHEMBL4765425 is where these values come from.
